Molecular target: recombinant PRL-2 (Homo sapiens, UniProt Q12974)
Construct: 6xHis (N, cleaved yes); made in house; host or cells: E. coli One Shot BL21 Star
Sequence (Q12974 1-167): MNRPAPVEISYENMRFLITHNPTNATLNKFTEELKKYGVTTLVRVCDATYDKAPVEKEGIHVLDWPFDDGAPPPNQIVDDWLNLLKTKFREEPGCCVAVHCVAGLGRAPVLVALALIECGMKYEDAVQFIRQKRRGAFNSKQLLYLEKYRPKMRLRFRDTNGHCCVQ
Test: In vitro phosphatase assay (DiFMUP hydrolysis), PRL-2
Format: biochemical
Settings: FDA-approved drug screen; compared to DMSO
Counter-ions that a name gives are not always drawn.
Measured Parameter: % Phosphatase Activity (compared to DMSO) PRL-2 (%)
Supply the numeric figure in %, leaving out any unit text.

## Input Returns the measured % Phosphatase Activity (compared to DMSO) PRL-2 for the input compound. Input: CCOC(=O)c1ccc(N)cc1.Cl [Benzocaine hydrochloride]
## Output 102

## Input What value of % Phosphatase Activity (compared to DMSO) PRL-2 has been reported for the following compound? CCCC(CCC)C(=O)O [Divalproex Sodium]
## Output 94

## Input Query (compound): CN(C)CCC(c1ccc(Cl)cc1)c1ccccn1 (stereo not shown) [Chlorpheniramine Maleate] ; field requested: % Phosphatase Activity (compared to DMSO) PRL-2
## Output 103

## Input Reported % Phosphatase Activity (compared to DMSO) PRL-2 for C#Cc1cccc(Nc2ncnc3cc(OCCOC)c(OCCOC)cc23)c1.Cl [Erlotinib HCl (OSI-744)] : what is it?
## Output 128

## Input Consider the compound CCC(C)n1ncn(-c2ccc(N3CCN(c4ccc(OCC5COC(Cn6cncn6)(c6ccc(Cl)cc6Cl)O5)cc4)CC3)cc2)c1=O (stereo not shown) and give its measured % Phosphatase Activity (compared to DMSO) PRL-2.
## Output 93

## Input Could you share which % Phosphatase Activity (compared to DMSO) PRL-2 value was measured for C=CC(=O)Nc1cc(Nc2nccc(-c3cn(C)c4ccccc34)n2)c(OC)cc1N(C)CCN(C)C ?
## Output 89

## Input Query: % Phosphatase Activity (compared to DMSO) PRL-2; subject: Clc1ccccc1C(c1ccccc1)(c1ccccc1)n1ccnc1
## Output 108

## Input Fill in: % Phosphatase Activity (compared to DMSO) PRL-2 of CCN(C)C(=O)Oc1cccc([C@H](C)N(C)C)c1 [Rivastigmine Tartrate] is ___
## Output 107

## Input Entry CCN(CC)C(=O)c1cccc(C)c1 has what % Phosphatase Activity (compared to DMSO) PRL-2?
## Output 77

## Input Query: % Phosphatase Activity (compared to DMSO) PRL-2; subject: NCCCNCCSP(=O)(O)O
## Output 108

* * *

Please provide measured IC50 for the entries that follow.
Molecular target: recombinant PRL-2 (Homo sapiens, UniProt Q12974)
Construct: 6xHis (N, cleaved yes); made in house; host or cells: E. coli One Shot BL21 Star
Experiment: In vitro phosphatase assay (DiFMUP hydrolysis), PRL-2;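 further: PRL-2 activity read as DiFMUP hydrolysis after 20 min at room temperature with drug, enzyme first pre-reduced at 4 °C for 20 min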
Format: biochemical
Conditions: 2.5 µM protein, DiFMUP at KM; read-out: Calculated IC50, PRL-2 phosphatase activity
Respond with the bare value in µM.

## Input Please report the recorded IC50 for CCCCCCCCCCCC1=C(O)C(=O)C=C(O)C1=O [Embelin, reference compound] .
## Output 124

## Input Quick one: IC50 of COc1cc(C(=O)O)ccc1NC(=O)[C@@H]1N[C@@H](CC(C)(C)C)[C@](C#N)(c2ccc(Cl)cc2F)[C@H]1c1cccc(Cl)c1F [Idasanutlin, reference compound] ?
## Output 16

## Input Could you share which IC50 value was measured for Oc1c(Cl)cc(Cl)c(Cl)c1Cc1c(O)c(Cl)cc(Cl)c1Cl [Hexachlorophene, reference compound] ?
## Output 35

## Input Recorded IC50 of CC(=O)c1cc2c(o1)C(=O)c1ccccc1C2=O [Napabucasin, reference compound] , please.
## Output 1.1

All figures here come from paper PMC8119466.
